experiment: NCI Yeast Anticancer Drug Screen. Data for the wt2 strain (AID 169);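 note: 0% = growth of vehicle-treated yeast cultures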; conditions: S. cerevisiae wt2 strain growth inhibition; at 3.7 µM; hits give high values
The panel holds about 79,000 compounds, 15% with a hit somewhere; the sample as a whole holds those more often.
METRIC: growth inhibition (%)
Give the quantity in %, number only.

Known results for compounds:
| CPD SMILES | METRIC | UNIT OF MEASURE | NUMBER |
| --- | --- | --- | --- |
| c1ccc(CCN2CCc3ccccc3C2)cc1 | growth inhibition | % | 1 |
| O=C1c2ccccc2C(=O)N1CCCC(=O)n1cc(F)c(=O)[nH]c1=O | growth inhibition | % | -12 |
| COc1cc(CSc2ccc(O)cc2)cc(O)c1O | growth inhibition | % | 1 |
| Cc1ccccc1N=Cc1cc(Cl)ccc1O | growth inhibition | % | 0 |

Exam item: Entry under review: CNC(=O)OCc1c(COC(=O)NC)c(-c2ccc(Cl)c(Cl)c2)n2c1SCC2 . Reported growth inhibition?
Marked response: -2

Exam item: Record: CN(C)c1nc(=Nc2cccc(Cl)c2)ss1
Marked response: 32
